protocol_summary: melting temperature; fluorescence melt of hairpins on a sequencing array, two-state fit, raised by 9.35 °C to match UV melts
settings: sodium 0.088 M
measure: Tm (°C)

>>> df
                            residue_codes  numeric_value
 0      GGGACAGAAATGTCCC ((((((....))))))           64.1
 1                GCGTCCGACGC ((((...))))           53.9
 2  GAATGTGCGAAAGCATTC (((..(((....))))))           29.3
 3  GCGCTGCGAAAGCTGTGC ((.(.((....)).).))           59.5
 4  GACCTTCCGAAAGGAGTC (((..(((....))))))           26.4
 5          TGGCAGAAATGCCA (((((....)))))           54.2
 6  GCGGTAGGAAACTATCGC (((.(((....))).)))           53.7
 7  GCCTCGCGAAAGCAACGC ((.(.((....)).).))           23.4
 8      GAGACAGAAATGTCTC ((((((....))))))           52.5
 9  GGTGAACGAAAGTTGACC (((.(((....))).)))           48.9
10  GATACTGGAAACAGTACC (.(((((....))))).)           33.1
11                GCGGGTGCCGC ((((...))))           55.9
12        GATCCTATGAGGATC ((((((...))))))           53.7
13  GGGGGGGGAAACCTCCCC ((((.((....)).))))           59.9
14  GCATTCGAAAGAATATGC ((((((....)))..)))           36.1
15    GTAAAACGAAAGTTTAC (((.(((....))))))           35.2
16      GATCCGTAAGCGGATC ((((((....))))))           59.3
17  GACGCCGAAAGGCTAGTC ((((((....)))..)))           46.8
18  GGTGGGGGAAACTCCACC (((((.(....).)))))           56.4
19          TTCCCGAAAGGGAA (((((....)))))           56.1
20  GTCTCGTCGAAAGACGAC (((..(((....))))))             37
21  GAGTTAGGAAACTAATTC ((.((((....)))).))           27.9
22  GCCGTCGGAAACAACGGC (((((.(....).)))))           53.9
23      GATCCTACAGAGGATC ((((((....))))))           50.4
24  GTCTCTGGAAACAGAGGC (.(((((....))))).)           49.5
25  GATCGGCGAAAGCCCATC (((.(((....))).)))           36.4

====

protocol_summary: melting temperature; fluorescence melt of hairpins on a sequencing array, two-state fit, raised by 9.35 °C to match UV melts
settings: sodium 0.088 M
measure: Tm (°C)

>>> print(df.to_string())
                            residue_codes  measure  numeric_value
 0  GACGACGCGAAAGCGGTC (((..(((....))))))       Tm             47
 1  GGACAAGGAAACTTGTCC (((((((....)))))))       Tm             61
 2    GGCAACGAAAGTTTGCC ((((((....))).)))       Tm           56.4
 3  GTATACGGAAACGTATAC (((((((....)))))))       Tm           55.9
 4  GGAGGACCGAAAGGTTCC (((..(((....))))))       Tm           42.9
 5  GCGGAGCGAAAGCTTCGC (((.(((....))).)))       Tm           68.6
 6              GCGTTAGTACGC ((((....))))       Tm           51.1
 7        GATCTATTTTAGATC ((((((...))))))       Tm           41.7
 8      GATCGGATGCCCGATC ((((((....))))))       Tm           55.5
 9  GGTCGGCGAAAGCCCACC (((.(((....))).)))       Tm           46.9
10    GGAAGCCGAAAGGCTCC (((.(((....))))))       Tm             56
11  GCTCTTCGAAAGAATAGC (((.(((....))).)))       Tm           38.5

====

protocol_summary: melting temperature; fluorescence melt of hairpins on a sequencing array, two-state fit, raised by 9.35 °C to match UV melts
settings: sodium 0.088 M
Here, each record is paired with measured Tm data.
measure: Tm (°C)

>>> df
                            residue_codes  measure  uom  numeric_value
 0      GGGAAGGAAACTTCCC ((((((....))))))       Tm   °C           58.1
 1  GCAGGGCGAAAGCTCGGC ((.(.((....)).).))       Tm   °C           59.2
 2      GATCAAATTGTTGATC ((((((....))))))       Tm   °C           41.8
 3  GCCCAAGCGAAAGCTGGC (((..(((....))))))       Tm   °C           53.6
 4  GTGGGCGGAAACGCTCGC (.(.(((....))).).)       Tm   °C           49.9
 5  GACATCGGAAACGATGCC (.(((((....))))).)       Tm   °C           44.9
 6  GGGATGGGAAACCATCTC (.(((((....))))).)       Tm   °C           49.9
 7  GTTGCGACGAAAGTCAAC (((..(((....))))))       Tm   °C           33.5
 8        GATCCCTTGGGGATC ((((((...))))))       Tm   °C           60.1
 9      GACTTTGAAAAAAGTC ((((((....))))))       Tm   °C           48.6
10  GGATGCCCGAAAGGGTCC (((..(((....))))))       Tm   °C           33.2
11  GTTCACCGAAAGGTCAAC (((.(((....))).)))       Tm   °C             33
12    GTAGTCGAAAGACGTAC ((((((....))).)))       Tm   °C           47.6
13  GTAGGCGGAAACGCCTGC (.(((((....))))).)       Tm   °C           56.7
14  GAAGTGGCGAAAGCCTTC (((..(((....))))))       Tm   °C           31.4
15  GGTAGCGAAAGCTCCACC ((((((....)))..)))       Tm   °C           38.8
16  GGACTACGAAAGTATTCC (((.(((....))).)))       Tm   °C           39.2
17          CGGGTGAAAACCCG (((((....)))))       Tm   °C           68.6
18      GATCTATTGGTAGATC ((((((....))))))       Tm   °C           44.2
19    GCTAACGAAAGTTCAGC ((((((....))).)))       Tm   °C             39
20  GTCTCAACGAAAGTTGAC (((..(((....))))))       Tm   °C           30.5
21      GATCAGGTAACTGATC ((((((....))))))       Tm   °C           57.1
22  GACGTTGGAAACGACGTC (((((.(....).)))))       Tm   °C           55.8
23  GCGAACGGAAACGTTCAC (.(((((....))))).)       Tm   °C           46.1
24  GCATGGCGAAAGCATTGC (((..((....))..)))       Tm   °C           49.6
